These data points were gathered from PubChem BioAssay (NCI).

Tested on: MALME-3M melanoma
Test: NCI tumour cell line growth inhibition, 48 h; in the data active = GI50 below about 0.43 µM; inactive = the rest
One label from this list, please: YES for active, NO for inactive

Use these answered entries as a reference point.
Could you please tell me the result logged for `O=c1cccc(C#CC#CCCCO)o1` in this assay? NO

Could you please tell me the result logged for `Cc1ccc(Sc2oc(-c3ccc(C)cc3)nc2[P+](c2ccccc2)(c2ccccc2)c2ccccc2)cc1` in this assay? YES

Could you please tell me the result logged for CCN(CC)CCCC(C)Nc1c(-c2ccccc2)cnc2cc(Cl)ccc12 (stereo unspecified) in this assay? NO

Could you please tell me the result logged for `CC(=O)O.CC(=O)O.CC(=O)O.CC(=O)O.[Rh].[Rh]` in this assay? NO

Could you please tell me the result logged for `O=C1/C(=C/c2cccc(Br)c2)COc2ccc(O)c(O)c21` in this assay? NO

Further cases:
Could you please tell me the result logged for `Brc1cccc(-c2cc(-c3ccc4nccnc4c3)[nH]n2)c1` in this assay? NO

Could you please tell me the result logged for CC(=O)OC(C)C(OC(C)=O)C(OC(C)=O)C(/C=C/C1CC=CC(=O)O1)OC(C)=O (stereo unspecified) in this assay? NO
